- targetEntity: T1, dephosphorylated Aurora A kinase (Homo sapiens, UniProt O14965)
- T1 construct: Codon-optimized Aurora A^122-403 in pET28a and untagged λPP in T7-7 plasmid were co-transformed in BL21(DE3) cells; inferred from pET28a and the NiNTA column) (cleaved yes); made in house; host or cells: E. coli BL21(DE3), co-expressed with lambda protein phosphatase
- T1 sequence (O14965 122-403): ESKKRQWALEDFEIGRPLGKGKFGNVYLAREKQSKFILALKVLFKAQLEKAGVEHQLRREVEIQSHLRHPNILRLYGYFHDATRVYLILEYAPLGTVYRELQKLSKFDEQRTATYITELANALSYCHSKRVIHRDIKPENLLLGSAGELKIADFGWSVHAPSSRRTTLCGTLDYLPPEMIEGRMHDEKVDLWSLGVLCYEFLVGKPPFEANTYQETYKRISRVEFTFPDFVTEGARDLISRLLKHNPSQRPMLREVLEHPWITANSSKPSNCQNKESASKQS
- methodNotes: Isothermal titration calorimetry (ITC) binding to dephosphorylated Aurora A kinase
- particulars: ITC, FIG. 8
measuredEndpoint: binding affinity of monobody to dephosphorylated Aurora A kinase

A selection of reference data follows.
molecule	valueMeasured
Mb60: monobody binding allosteric site of Aurora A kinase, SEQ ID NO: 4; inhibitor (protein, listed as Homo sapiens) GSVSSVPTKLEVVAATPTSLLISWDAPAVTVVHYVITYGETGGNSPVQEFTVPGSKSTATISGLKPGVDYTITVYAIDFYWGSYSPISINYRT	low μM levels
Mb56: monobody binding allosteric site of Aurora A kinase, SEQ ID NO: 3; inhibitor (protein, listed as Homo sapiens) GSVSSVPTKLEVVAATPTSLLISWDAMSDWYYWVDYYRITYGETGGNSPVQEFTVPGSYSTATISGLKPGVDYTITVYASDDVWGDYSPISINYRT	low nanomolar affinities
Mb51: monobody binding allosteric site of Aurora A kinase, SEQ ID NO: 2; inhibitor (protein, listed as Homo sapiens) GSVSSVPTKLEVVAATPTSLLISWDAKPMSYEPVYYYRITYGETGGNSPVQEFTVPGYYSTATISGLKPGVDYTITVYADSMSSYYYSPISINYRT	low nanomolar affinities
Mb44: monobody binding allosteric site of Aurora A kinase, SEQ ID NO: 1; inhibitor (protein, listed as Homo sapiens) GSVSSVPTKLEVVAATPTSLLISWDAPAVTVDFYVITYGETGGYSYPWQEFEVPGSKSTATISGLKPGVDYTITVYADYGQYFYSPISINYRT	low μM levels

// moving on: another record for binding affinity of monobody to dephosphorylated Aurora A kinase
Entry Mb54: monobody binding allosteric site (PIF pocket) of Aurora A kinase, SEQ ID NO: 11; activator (protein, listed as Homo sapiens) GSVSSVPTKLEVVAATPTSLLISWDAQTYQMYDYVSYYRITYGETGGNSPVQEFTVPGYYSTATISGLKPGVDYTITVYAEGYYSSYSPISINYRT , binding affinity of monobody to dephosphorylated Aurora A kinase reported as low nanomolar affinities
